Molecular target: human TLR9 (Homo sapiens (Human), UniProt Q9NR96)
Sequence (Q9NR96 26-1032): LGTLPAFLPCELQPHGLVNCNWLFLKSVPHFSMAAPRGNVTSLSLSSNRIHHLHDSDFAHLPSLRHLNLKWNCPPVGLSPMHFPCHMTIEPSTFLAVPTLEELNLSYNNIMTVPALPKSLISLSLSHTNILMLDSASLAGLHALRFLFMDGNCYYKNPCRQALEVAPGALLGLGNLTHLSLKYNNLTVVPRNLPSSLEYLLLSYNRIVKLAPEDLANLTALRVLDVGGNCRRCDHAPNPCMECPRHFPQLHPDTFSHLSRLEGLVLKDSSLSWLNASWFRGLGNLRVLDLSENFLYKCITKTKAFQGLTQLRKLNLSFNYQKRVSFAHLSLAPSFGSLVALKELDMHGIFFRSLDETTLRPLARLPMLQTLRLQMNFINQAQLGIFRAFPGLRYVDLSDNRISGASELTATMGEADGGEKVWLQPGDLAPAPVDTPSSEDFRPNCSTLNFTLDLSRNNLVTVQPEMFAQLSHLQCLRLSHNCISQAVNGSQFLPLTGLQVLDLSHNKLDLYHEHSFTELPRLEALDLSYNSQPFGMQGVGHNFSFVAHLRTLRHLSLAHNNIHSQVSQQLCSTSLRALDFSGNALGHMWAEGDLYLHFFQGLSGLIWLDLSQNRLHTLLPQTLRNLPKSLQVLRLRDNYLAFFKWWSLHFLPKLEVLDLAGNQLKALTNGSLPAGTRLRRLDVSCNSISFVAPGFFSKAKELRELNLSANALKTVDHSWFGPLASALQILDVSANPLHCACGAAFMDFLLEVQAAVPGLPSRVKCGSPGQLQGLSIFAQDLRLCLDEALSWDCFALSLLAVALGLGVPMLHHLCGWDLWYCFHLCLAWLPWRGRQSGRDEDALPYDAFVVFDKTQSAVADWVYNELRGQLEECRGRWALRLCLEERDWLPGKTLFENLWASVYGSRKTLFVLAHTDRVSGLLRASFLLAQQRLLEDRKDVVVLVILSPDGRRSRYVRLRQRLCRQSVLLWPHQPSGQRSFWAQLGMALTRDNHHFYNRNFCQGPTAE
Assay: TLR9 inhibition reporter assay (HEK-Blue cells, SEAP reporter, ODN2006 stimulation);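 further: compounds tested over 0.05 nM to 50 µM, 22 h incubation, inhibition taken as SEAP signal drop from agonist plus DMSO wells toward a known inhibitor control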
Conditions: read-out: TLR9 IC50, HEK-Blue cells overexpressing human TLR9, ODN2006 5 nM
param class (str): category from IC50; see ranges low group: < 600 nM; middle group: ≥ 600 nM and < 2000 nM; high group: ≥ 2000 nM

1) Cc1cc(-c2[nH]c3ccc(C4CCN(CC5CCC5)CC4)cc3c2C(C)C)cc(C)n1 [Example 467] | low group
2) Cc1cc(-c2[nH]c3ccc(C4CCN(C(=O)C5(C)CCNCC5)CC4)cc3c2C(C)C)cc(C)n1 [Example 197] | low group
3) Cc1cc(-c2[nH]c3ccc(C4CCN(C(=O)C(C)(C)O)CC4)cc3c2C(C)C)cc(C)n1 [Example 173] | high group
4) Cc1cc(-c2[nH]c3ccc(C4CCN(C(=O)C5CNC(=O)C5)CC4)cc3c2C(C)C)ccn1 (stereo not drawn) [Example 612] | high group
5) CCc1c(-c2ccnc(-c3noc(N)n3)c2)[nH]c2ccc(C3CCNCC3)cc12 [Example 65] | middle group
6) Cc1cc(-c2[nH]c3ccc(C4CCN(C5CCOC(C)(C)C5)CC4)cc3c2C(C)C)cc(C)n1 (stereo not drawn) [Example 453] | low group
7) Cc1cc(-c2[nH]c3ccc(C4CCN(C(=O)C5CC(=O)N(C(C)(C)C)C5)CC4)cc3c2C(C)C)ccn1 (stereo not drawn) [Example 613] | high group
8) Cc1cc(-c2[nH]c3ccc(C4CCN(CCC#N)CC4)cc3c2C(C)C)cc(C)n1 [Example 315] | middle group
9) CCc1c(-c2ccnc(OC(F)F)c2)[nH]c2ccc(C3CCN(C4CCN(CC(C)C)CC4)CC3)cc12 [Example 775] | low group
10) Cc1cc(-c2[nH]c3ccc(C4CCN(C(=O)CN5C(=O)CN(C)C5=O)CC4)cc3c2C(C)C)cc(C)n1 [Example 160] | high group
11) Cc1cc(-c2[nH]c3ccc(C4CCN(CC(O)C(F)(F)F)CC4)cc3c2C(C)C)cc(C)n1 (stereo not drawn) [Example 316] | middle group
12) Cc1cc(-c2[nH]c3ccc(C4CCN(C(=O)Cc5cc(C)nn5C)CC4)cc3c2C(C)C)cc(C)n1 [Example 136] | high group
13) Cc1cc(-c2[nH]c3ccc(C4CCN(CC(O)C(F)(F)F)CC4)cc3c2C(C)C)cc(C)n1 (stereo not drawn) [Example 317] | middle group
14) Cc1cc(-c2[nH]c3ccc(C4CCN(C(=O)CN5C(C)CCC5C)CC4)cc3c2C(C)C)cc(C)n1 (stereo not drawn) [Example 368] | middle group
